# System: RAW-Dual (murine macrophage reporter line)
# assay_explanation: NF-kB reporter (SEAP) activity fold change vs agonist alone; higher = enhanced NF-kB activity
# run_parameters: modulator concentration 10 µM; agonist: MPLA […]
Decision: NF-kB reporter >= 1 yields yes (1), all other cases yield no (0).

Illustrative cases are given below, each with its answer.
| compound | answer_label |
| --- | --- |
| CC1=C(C(=O)OCCN(Cc2ccccc2)c2ccccc2)C(c2cccc([N+](=O)[O-])c2)C(P2(=O)OCC(C)(C)CO2)=C(C)N1 (centres undefined) | no (0) |
| Cc1cccc(Cn2c(=O)c3nscc3n(Cc3ccc(F)c(F)c3)c2=O)c1 | yes (1) |

In plain terms: is recorded NF-kB reporter at least 1 for CCCC1=NN2C(=N)C(=Cc3ccc(OCc4ccc(F)cc4)c(OCC)c3)C(=O)N=C2S1 ?
no (0)

In plain terms: is recorded NF-kB reporter at least 1 for CCNC(=O)CCC/C=C\C[C@@H]1[C@@H](/C=C/C(O)CCc2ccccc2)[C@@H](O)C[C@@H]1O (some centres undefined) ?
no (0)

In plain terms: is recorded NF-kB reporter at least 1 for Cc1nnc(C)n1N=Cc1ccc(Cl)c([N+](=O)[O-])c1 ?
yes (1)

In plain terms: is recorded NF-kB reporter at least 1 for O=C(CC12CC3CC(CC(C3)C1)C2)N1CCCCC1 ?
no (0)

In plain terms: is recorded NF-kB reporter at least 1 for O=c1[nH]c(=O)n([C@H]2C[C@H](O)[C@@H](CO)O2)cc1F ?
yes (1)

In plain terms: is recorded NF-kB reporter at least 1 for COc1cc(Nc2ncc3c(n2)-c2ccc(Cl)cc2C(c2c(F)cccc2OC)=NC3)ccc1C(=O)O ?
no (0)
